Tested on: Escherichia coli ATCC 25922
Assay type: cell-based
Condition description: ATCC 25922
No end group written: not given here.
Assay endpoint: MIC, E. coli ATCC 25922

Problem: Query for Escherichia coli ATCC 25922: what MIC, E. coli ATCC 25922 does the record show for GLQKLINKIKSQMSRFSTKTNKICGP [HoSa1] ?
Result: 16 µg/mL

Problem: Query for Escherichia coli ATCC 25922: what MIC, E. coli ATCC 25922 does the record show for SYWWWGFHKNVIDRREAFYADLAEKKKAEN [CaGl1] ?
Result: > 128 µg/mL

Problem: Query for Escherichia coli ATCC 25922: what MIC, E. coli ATCC 25922 does the record show for WLLVLQRGHRLASIKHVCQLSERKR [DaRe1] ?
Result: 32 to 64 µg/mL

Problem: Query for Escherichia coli ATCC 25922: what MIC, E. coli ATCC 25922 does the record show for RFGRFLRKIRRFRPKVTITIQGSARFG [Chicken CATH-2, reference compound] ?
Result: 8 to 16 µg/mL

Problem: Query for Escherichia coli ATCC 25922: what MIC, E. coli ATCC 25922 does the record show for FWNLNKKKKFFYKTVKNSIGQVILRDMSNN [DiDi2] ?
Result: 16 µg/mL

Problem: Query for Escherichia coli ATCC 25922: what MIC, E. coli ATCC 25922 does the record show for FMRFGKRFMRFGRFGKSAEVENNIQIAAKQS [LySt2] ?
Result: > 128 µg/mL

Problem: Query for Escherichia coli ATCC 25922: what MIC, E. coli ATCC 25922 does the record show for RSIIRNGIRTLTWRKETKRKKK [ArTh11] ?
Result: 64 to 128 µg/mL

Problem: Query for Escherichia coli ATCC 25922: what MIC, E. coli ATCC 25922 does the record show for RVKRFWPLVPVAINTVAAGINLYKAIRRK [Chicken CATH-3, reference compound] ?
Result: 2 to 4 µg/mL

Problem: Query for Escherichia coli ATCC 25922: what MIC, E. coli ATCC 25922 does the record show for DLWFGLKTEGELAFVKRTIFDVIYKSAKRKR [ArTh10] ?
Result: > 128 µg/mL

Problem: Query for Escherichia coli ATCC 25922: what MIC, E. coli ATCC 25922 does the record show for YVSPVAIVKGLNIPL [Ovipin, reference compound] ?
Result: > 128 µg/mL

Problem: Query for Escherichia coli ATCC 25922: what MIC, E. coli ATCC 25922 does the record show for GLIKRIIRQKR [GaGa2] ?
Result: 128 µg/mL

Problem: Query for Escherichia coli ATCC 25922: what MIC, E. coli ATCC 25922 does the record show for VWEFFEAGAGLRASNASKKIYGVAKRFRR [DiVi1] ?
Result: > 128 µg/mL
